Source of measurements: patent US20150150960A1

biological target: HLA B*1501 (human); assay: inhibition of radiolabeled probe peptide binding to purified HLA
Property Label: IC50 (nM)
Respond numerically; units are nM and should not be typed.

Entry under test: YAQMWSLMY [YAQMWSLMY (DENV2 3254-3262)] . Its IC50 was 6
